Target: SRPK1 (Homo sapiens)
Test: Z'-LYTE kinase assay, SRPK1 inhibition
Format: biochemical
Details: Z'-LYTE kinase assay; read-out: IC50 (nM) SRPK1
parameter.measured: IC50

• CCc1cc2c(=O)c3c4ccc(C#N)cc4[nH]c3n(C(C)C)c2cc1-c1cccc(S(=O)(=O)F)c1 [Compound 1] = 6 nM

We now examine a further compound.
# lookup: IC50 of COc1cc2c(=O)c3c4ccc(C#N)cc4[nH]c3n(C(C)C)c2cc1-c1cncc(S(=O)(=O)F)c1 [Compound 3] 6 nM

* * *

Target: SRPK1 (Homo sapiens, UniProt Q96SB4)
Sequence (Q96SB4 whole entry): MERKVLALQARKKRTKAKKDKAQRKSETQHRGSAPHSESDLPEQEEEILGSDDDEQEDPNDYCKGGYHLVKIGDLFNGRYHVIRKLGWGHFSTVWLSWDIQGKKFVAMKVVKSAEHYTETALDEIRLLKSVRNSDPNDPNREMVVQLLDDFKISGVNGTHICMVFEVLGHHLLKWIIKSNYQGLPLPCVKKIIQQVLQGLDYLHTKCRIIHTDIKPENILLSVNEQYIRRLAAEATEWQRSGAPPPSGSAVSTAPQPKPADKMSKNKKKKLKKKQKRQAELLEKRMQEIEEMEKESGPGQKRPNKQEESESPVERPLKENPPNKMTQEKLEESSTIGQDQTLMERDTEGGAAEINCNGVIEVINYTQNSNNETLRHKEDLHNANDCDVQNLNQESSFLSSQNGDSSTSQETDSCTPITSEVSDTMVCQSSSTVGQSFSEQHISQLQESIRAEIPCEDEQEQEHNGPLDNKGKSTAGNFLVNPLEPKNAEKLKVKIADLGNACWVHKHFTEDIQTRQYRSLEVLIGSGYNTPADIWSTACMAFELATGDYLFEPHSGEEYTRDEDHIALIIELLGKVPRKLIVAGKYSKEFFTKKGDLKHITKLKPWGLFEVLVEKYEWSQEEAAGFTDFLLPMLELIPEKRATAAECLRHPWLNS
Test: Z'-LYTE kinase assay, SRPK1 inhibition
Assay type: biochemical
parameter.measured: IC50
Please make sure the unit comes right after the number.

# lookup: IC50 of "COc1cc2c(=O)c3c4ccc(C#N)cc4[nH]c3n(C(C)C)c2cc1-c1cccc(S(=O)(=O)F)c1" 4 nM

Data credit: patent US12497398B2
